Experimental Protocol: Henry solubility constant Hcp at 313 K (mol/(m3 Pa))
Test Context: reference: Du et al. (2017)
Note: every record was labeled by where its Henry solubility constant Hcp at 313 K sits among small value = under 100, mid value = from 100 up to 700, large value = 700 and over

Lab note: which band did OCCN1CCCCC1 [1-(2-hydroxyethyl)piperidine] land in?
small value

What about this molecule? CCN(CC)CCO
small value

Consider next the molecule CCc1ncc(C)[nH]1 in the same way.
mid value

Request: CC(C)(N)CO
mid value

Can you handle CN(C)CCOCCO next?
large value

Same thing, different molecule: Cc1nccn1C
small value

Now this one: Cn1ccnc1
small value

Another: CC(C)NCCO
mid value

Subsequent entry: CN(C)CC(O)CO (stereo not given)
mid value

Param item: CN(CCO)CCO
large value

CN1CCC(O)CC1 [4-hydroxy-N-methylpiperidine] , same question.
large value

Field entry: CN1C2CCC1CC(O)C2 (stereo not given)
large value

Also check CCN(CC)CC(O)CO (stereo not given)
mid value

Entry NCc1cccnc1 please
mid value

Consider next the molecule COCCNCCOC in the same way.
mid value

Moving on to the next molecule: COCCCN
small value

Next up: Cc1ncc[nH]1
large value

Next entry: CCc1ncc[nH]1
large value

How about OCCC1CCCCN1 (stereo not given) ?
mid value

src = Sander's compilation of Henry's law constants (doi:10.1016/j.ijggc.2017.01.001)
